Molecular target: Bafilomycin-Sensitive ATPase in Chicken Osteoclasts
Assay: Inhibition of bafilomycin-sensitive ATPase activity in purified membrane vesicles (Pi release, malachite green)
Assay type: biochemical
Conditions: chicken osteoclast membranes
measured_attribute: IC50 (µM)

structure_smiles_string	IC50 (µM)
CO/C(=C\C=C\c1cc2ccccc2o1)C(=O)NC1CC(C)(C)NC(C)(C)C1	8.6
CO/C(=C\C=C\c1cc2ccccc2s1)C(=O)NC1CC(C)(C)N(C)C(C)(C)C1	10.6
CCN(CC)CCCNC(=O)/C(=C/C=C/c1cc2cc(Cl)ccc2o1)OC	10

P: CO/C(=C\C=C\c1cc2ccccc2o1)C(=O)NC1CC(C)(C)N(C)C(C)(C)C1
Q: CO/C(=C\C=C\c1cc2cc(Cl)ccc2o1)C(=O)NC1CC(C)(C)N(C)C(C)(C)C1
Of P and Q , whose reported IC50 is numerically smaller? State your choice using its label.
Q
(Q: 0.5 µM, P: 11 µM)

Provenance of the data: patent US6025390A
